Target: Apelin receptor (Homo sapiens)
Sequence (P35414 whole entry): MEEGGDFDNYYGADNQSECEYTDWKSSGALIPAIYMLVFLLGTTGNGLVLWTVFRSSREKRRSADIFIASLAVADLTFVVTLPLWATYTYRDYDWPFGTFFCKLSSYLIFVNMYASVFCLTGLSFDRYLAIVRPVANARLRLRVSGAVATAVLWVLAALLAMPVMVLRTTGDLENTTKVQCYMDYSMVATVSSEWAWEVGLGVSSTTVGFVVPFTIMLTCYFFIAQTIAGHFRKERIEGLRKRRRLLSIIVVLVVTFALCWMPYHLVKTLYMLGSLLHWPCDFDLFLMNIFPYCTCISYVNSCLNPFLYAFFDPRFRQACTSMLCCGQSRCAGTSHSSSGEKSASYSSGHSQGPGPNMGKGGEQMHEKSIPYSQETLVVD
Assay: Agonist activity at human APJ expressed in HEK293 cells assessed as inhibition of forskolin-stimulated cAMP production
Exercise: for every item that follows, state its recorded pEC50.
One number for each entry, as −log10 of the molar value.

Recorded pEC50, per entry:
CCCSc1nc(=O)cc(O)n1-c1ccccc1C : 7.00
CCCSc1nc(=O)cc(O)n1-c1ccccc1C(F)(F)F : 7.05
CCCSc1nc(=O)cc(O)n1-c1cccc(OC)c1 : 6.03
CCCCSc1nc(=O)cc(O)n1-c1ccccc1OC : 6.70
CCCCc1nc(=O)c(Cc2ccc(OC)cc2)c(O)n1-c1c(OC)cccc1OC : 7.89

Would you be so kind as to report pEC50 for each listed record?
1. CCCCc1c(O)n(-c2ccccc2OC)c(SCCC)nc1=O
2. CCCCc1nc(=O)cc(O)n1-c1c(OC)cccc1OC
3. C=CCn1c(O)cc(=O)nc1SC(C)CC (stereo not drawn)

**A:**
[5.77, 7.96, 5.36]

Would you be so kind as to report pEC50 for each listed record?
1. CCCSc1nc(=O)cc(O)n1-c1ccccc1
2. CCCSc1nc(=O)cc(O)n1-c1ccc(C)cc1
3. CCCSc1nc(=O)c(Cc2ccccc2)c(O)n1-c1ccccc1OC

**A:**
5.30
6.59
6.47

Would you be so kind as to report pEC50 for each listed record?
1. CCCSc1nc(=O)c(C)c(O)n1-c1ccccc1OC
2. CCCSc1nc(=O)cc(O)n1-c1ccccc1Br

**A:**
5.85
6.81

Source listed as ChEMBL document CHEMBL4616620.
